Tested on: Alopecurus myosuroides
protocol: Pre-emergence herbicidal effect
Format: in vivo
condition.details: 80 g/ha, visual score after 3 weeks vs untreated controls
Listed here are molecules together with their documented Pre-emergence action ALOMY (herbicidal activity in percent).
# unit: % | format: bare number

{"molecule": "CC#Cc1cc(Br)c(C2=C(O)C3(CCOCC3)NC2=O)c(OC)c1 [Example 1.1.01]", "meas.value": 90}
{"molecule": "C=CCOC1CCC2(CC1)NC(=O)C(c1c(Br)cc(C#CC)cc1OC)=C2OC(=O)C(C)C (centres unmarked) [Example 1.3.04]", "meas.value": 90}
{"molecule": "CC#Cc1cc(Br)c(C2=C(OC(=O)OCC)C3(CCC(OCCOC)CC3)NC2=O)c(OC)c1 (centres unmarked) [Example 1.3.07]", "meas.value": 100}
{"molecule": "CC#Cc1cc(Br)c(C2=C(OC(=O)OC)C3(CCC(OC(C)C)CC3)NC2=O)c(OC)c1 (centres unmarked) [Example 1.3.11]", "meas.value": 100}
{"molecule": "C=CCOC1CCC2(CC1)NC(=O)C(c1c(Br)cc(C#CC)cc1OC)=C2OC(=O)OCC (centres unmarked) [Example 1.3.03]", "meas.value": 100}
{"molecule": "CC#Cc1cc(Br)c(C2=C(O)C3(CCC(OC(C)C)CC3)NC2=O)c(OC)c1 (centres unmarked) [Example 1.3.09]", "meas.value": 100}

Query: Item CC#Cc1cc(Br)c(C2=C(O)C3(CCC(OCCOC)CC3)NC2=O)c(OC)c1 (centres unmarked) [Example 1.3.05] has what recorded Pre-emergence action ALOMY (herbicidal activity in percent)?
Result: 100

Query: Item C=CCOC1CCC2(CC1)NC(=O)C(c1c(Br)cc(C#CC)cc1OC)=C2O (centres unmarked) [Example 1.3.01] has what recorded Pre-emergence action ALOMY (herbicidal activity in percent)?
Result: 100

Query: Item CC#Cc1cc(Br)c(C2=C(OC(=O)OCC)C3(CCC(OC(C)C)CC3)NC2=O)c(OC)c1 (centres unmarked) [Example 1.3.12] has what recorded Pre-emergence action ALOMY (herbicidal activity in percent)?
Result: 100

Query: Item CC#Cc1cc(Br)c(C2=C(OC(C)=O)C3(CCC(OCCOC)CC3)NC2=O)c(OC)c1 (centres unmarked) [Example 1.3.08] has what recorded Pre-emergence action ALOMY (herbicidal activity in percent)?
Result: 100

Query: Item CC#Cc1cc(Br)c(C2=C(OC(=O)OC)C3(CCOCC3)NC2=O)c(OC)c1 [Example 1.1.02] has what recorded Pre-emergence action ALOMY (herbicidal activity in percent)?
Result: 90

FYI, the data here is from patent US20220056040A1.
